# Tested on: GSK3β (Homo sapiens)
# Sequence (P49841 whole entry): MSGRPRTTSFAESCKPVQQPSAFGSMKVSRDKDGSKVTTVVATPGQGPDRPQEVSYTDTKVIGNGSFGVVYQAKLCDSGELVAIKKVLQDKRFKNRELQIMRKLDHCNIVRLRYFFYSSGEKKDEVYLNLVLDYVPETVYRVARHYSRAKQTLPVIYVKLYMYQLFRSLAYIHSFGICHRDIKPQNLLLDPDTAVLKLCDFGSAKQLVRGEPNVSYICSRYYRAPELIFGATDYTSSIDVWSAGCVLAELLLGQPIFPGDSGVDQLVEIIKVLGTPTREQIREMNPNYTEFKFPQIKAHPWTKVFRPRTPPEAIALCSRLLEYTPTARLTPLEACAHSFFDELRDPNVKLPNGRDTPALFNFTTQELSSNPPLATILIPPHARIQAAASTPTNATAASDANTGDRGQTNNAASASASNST
# Test protocol: GSK3β in vitro kinase assay
# Conditions used: recombinant human GSK3β, 100 μM ATP
Measured endpoint: IC50 (nM)

CCn1c(C)c(-c2ccnc(Nc3ccc(Cl)c(C(F)(F)F)c3)n2)sc1=O :: 61.9
CCNS(=O)(=O)c1cccc(Nc2nccc(-c3sc(=O)n(C)c3C)n2)c1 :: 22
Cc1c(-c2ccnc(Nc3ccc(CN)cc3)n2)sc(=O)n1C :: 69.8
CCn1c(C)c(-c2ccnc(Nc3ccc(S(=O)(=O)O)cc3)n2)sc1=O :: 43.5
Cc1c(-c2ccnc(Nc3ccc(CNC(=O)c4ccccn4)cc3)n2)sc(=O)n1C :: 28.1

a = Cc1ccc(Nc2nccc(-c3sc(=O)n(C)c3C)n2)cc1S(=O)(=O)N1CCOCC1
b = CCn1c(C)c(-c2ccnc(Nc3cccc(O)c3)n2)sc1=O
Higher IC50 between a and b ? Reply with the label of the item you choose.
a
(a: 130 nM, b: 41.5 nM)
